Measured values drawn from patent US20250101011A1 for this set.

# study.target: DPP1 (Homo sapiens (Human))
# Sequence (P53634 25-463): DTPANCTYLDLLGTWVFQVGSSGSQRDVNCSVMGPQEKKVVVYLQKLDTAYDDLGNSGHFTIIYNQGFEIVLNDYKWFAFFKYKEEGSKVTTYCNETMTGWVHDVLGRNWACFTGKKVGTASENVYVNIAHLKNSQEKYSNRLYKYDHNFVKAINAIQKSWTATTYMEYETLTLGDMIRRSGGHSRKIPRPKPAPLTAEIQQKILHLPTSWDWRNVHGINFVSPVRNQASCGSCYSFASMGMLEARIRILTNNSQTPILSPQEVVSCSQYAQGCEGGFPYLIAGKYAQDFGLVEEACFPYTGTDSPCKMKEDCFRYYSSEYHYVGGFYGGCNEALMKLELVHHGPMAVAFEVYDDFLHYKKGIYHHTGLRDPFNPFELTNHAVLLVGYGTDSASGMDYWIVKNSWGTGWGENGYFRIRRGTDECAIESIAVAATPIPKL
# procedure.details: DPP1 activity inhibition test on U937 cells
# Assay type: cell-based
# assay.context: intracellular enzyme activity, substrate h-Gly-phe-AFC
metric.name: pIC50
In textbook form, pIC50 equals minus log to base ten of the concentration in mol/L.

Recorded pIC50 (molecule CN1CCC(=O)c2ccc(-c3ccc(C[C@@H](C#N)NC(=O)[C@@H]4CNCCCO4)c(F)c3)cc21 [Compound D118] ): 8.68

The molecule Cn1cc(-n2c(=O)oc3ccc(-c4ccc(C[C@@H](C#N)NC(=O)[C@@H]5CNCCCO5)c(F)c4)cc32)cn1 [Compound D63] showed pIC50 equal to 8.21

Record N#C[C@H](Cc1ccc(-c2ccc3c(c2)C2(COC2)OC3=O)cc1F)NC(=O)[C@@H]1CNCCCO1 [Compound D119] , field pIC50: 8.21

pIC50 reported for this molecule N#C[C@H](Cc1ccc(-c2ccc3c(c2)C=CC32CCN(C3COC3)CC2)cc1F)NC(=O)[C@@H]1CNCCCO1 [Compound D93] : 7.80

# molecule N#C[C@H](Cc1ccc(-c2ccc3oc(=O)n(CC4CCO4)c3c2)cc1F)NC(=O)[C@@H]1CNCCCO1 (some centres unmarked) [Compound D95] ; its pIC50 = 7.77

For CN1CC2(Cc3cc(-c4ccc(C[C@@H](C#N)NC(=O)[C@@H]5CNCCCO5)c(F)c4)ccc3C2=O)C1 [Compound D115] the molecule record lists pIC50 as 7.53

Value of measured pIC50 for the entry CN1CC2(C1)OCc1ccc(-c3ccc(C[C@@H](C#N)NC(=O)[C@@H]4CNCCCO4)c(F)c3)cc12 [Compound D103] : 7.91

Entry CC1CNC[C@@H](C(=O)N[C@H](C#N)Cc2ccc(-c3ccc4oc(=O)n(C)c4c3)cc2F)OC1 (some centres unmarked) [Compound D85] — recorded pIC50 = 8.52

Summary for this molecule, N#C[C@H](Cc1ccc(-c2ccc3c(c2)C2(CN(C4COC4)C2)OC3)cc1F)NC(=O)[C@@H]1CNCCCO1 [Compound D57] : pIC50 is 8.00

# molecule N#C[C@H](Cc1ccc(-c2ccc3c(c2)CCC3=O)[se]1)NC(=O)[C@@H]1CNCCCO1 [Compound D121] ; its pIC50 = 8.33

Short answer for CN1CC(Cn2c(=O)oc3ccc(-c4ccc(C[C@@H](C#N)NC(=O)[C@@H]5CNCCCO5)c(F)c4)cc32)C1 [Compound D96] : pIC50 was 6.44

For reference, reported pIC50 for Cn1c(=O)oc2ccc(-c3ccc(C[C@@H](C#N)NC(=O)[C@@H]4CNCC5(CC5)CO4)c(F)c3)cc21 [Compound D46] stands at 8.52

Lookup result for CC1(C)Cc2cc(-c3ccc(C[C@@H](C#N)NC(=O)[C@@H]4CNCCCO4)c(F)c3)ccc2C1=O [Compound D117] ; measured pIC50: 8.22

// field: pIC50; key: C[C@H]1CNC[C@@H](C(=O)N[C@H](C#N)Cc2ccc(-c3ccc4oc(=O)n(C)c4c3)cc2F)OC1 [Compound D109] ; value = 8.28

---

# study.target: DPP1 (Homo sapiens (Human))
# procedure.details: DPP1 activity inhibition test on U937 cells
# Format: cell-based
# assay.context: U-937, 50 nM compound, substrate h-Gly-phe-AFC
metric.name: inhibition at 0.05 µM

# inhibition at 0.05 µM of CN1CC(n2c(=O)oc3ccc(-c4ccc(C[C@@H](C#N)NC(=O)[C@@H]5CNCCCO5)cc4)cc32)C1 = 75 to 100%

// recorded inhibition at 0.05 µM for N#C[C@H](Cc1ccc(-c2cc3c(s2)CNC3=O)cc1)NC(=O)[C@@H]1CNCCCO1 : < 30%

Item: N#C[C@H](Cc1ccc(-c2ccc3oc(=O)n(CC4CCO4)c3c2)cc1F)NC(=O)[C@@H]1CNCCCO1 (some centres unmarked) | inhibition at 0.05 µM: 75 to 100%

Please fill in: inhibition at 0.05 µM reported for CN1CCC(n2c(=O)oc3ccc(-c4ccc(C[C@@H](C#N)NC(=O)[C@@H]5CNCCCO5)c(F)c4)cc32)CC1 = < 30%

Note to self: inhibition at 0.05 µM recorded for N#C[C@H](Cc1ccc(-c2ccc3oc(=O)n(C4CC(=O)C4)c3c2)cc1F)NC(=O)[C@@H]1CNCCCO1 was < 30%

Lab book: inhibition at 0.05 µM of N#C[C@H](Cc1ccc(-c2ccc3c(c2)C2(CN(C4COC4)C2)OC3)cc1F)NC(=O)[C@@H]1CNCCCO1 noted as 75 to 100%

Summary for this compound, CN(C)CC1OC(=O)c2ccc(-c3ccc(C[C@@H](C#N)NC(=O)[C@@H]4CNCCCO4)c(F)c3)cc21 (some centres unmarked) : inhibition at 0.05 µM is 75 to 100%

Sure, the documented inhibition at 0.05 µM for N#C[C@H](Cc1ccc(-c2ccc3oc(=O)n(C4COC4)c3c2)cc1)NC(=O)[C@@H]1CNCCCO1 is 30 to 75%

Lab note: measured inhibition at 0.05 µM of CN1CCN(S(=O)(=O)c2ccc(-c3ccc(C[C@@H](C#N)NC(=O)[C@@H]4CNCCCO4)cc3)cc2)CC1 was 30 to 75%

Lab note: measured inhibition at 0.05 µM of N#C[C@H](Cc1ccc(-c2ccc3oc(=O)n(C4CS(=O)(=O)C4)c3c2)cc1F)NC(=O)[C@@H]1CNCCCO1 was < 30%

Input Cn1c(=O)oc2cc(-c3ccc(C[C@@H](C#N)NC(=O)[C@@H]4CNCCCO4)cc3)ccc21 . Output inhibition at 0.05 µM: 30 to 75%

For this compound ( CC1CNC[C@@H](C(=O)N[C@H](C#N)Cc2ccc(-c3ccc4oc(=O)n(C)c4c3)cc2F)OC1 (some centres unmarked) ), measured inhibition at 0.05 µM is 75 to 100%

Reported inhibition at 0.05 µM ( CN1CCC2(CC1)OCc1cnc(-c3ccc(C[C@@H](C#N)NC(=O)[C@@H]4CNCCCO4)cc3)cc12 ) = 30 to 75%

So for N#C[C@H](Cc1ccc(-c2cc3c(cc2F)C(=O)OC3)cc1F)NC(=O)[C@@H]1CNCCCO1 , the logged inhibition at 0.05 µM turned out to be < 30%
